protocol: blockers of ER-stress CHOP reporter expression – cell-based, unfolded protein response, luciferase reporter, primary screen (AID 2732);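 also: 0% = tunicamycin plus vehicle and 100% = wells without tunicamycin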
condition set: CHO-K1 CHOP-promoter luciferase, tunicamycin-induced, 15-18 h; at 10 µM
Out of some 220,000 compounds screened, about 8,200 (3.7%) were called active.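 The calls were made as follows: active = compounds that reduced the stress-induced luciferase reporter signal by more than about 70% of percent inhibition (limit read from the data); inactive = the rest.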 Only a selection was taken, and actives are over-represented in it overall.
Classes to choose from: y for active, n for inactive

The following compounds have reported results that may help.
[
  {
    "compound": "Cc1ccc(Oc2cc(NC(=O)CCCn3nc(C)c([N+](=O)[O-])c3C)cc([N+](=O)[O-])c2)cc1",
    "label": "y"
  },
  {
    "compound": "Cc1ccsc1/C=N/Nc1ccc(Cl)nn1",
    "label": "n"
  },
  {
    "compound": "O=C(CCc1ccccc1)NNc1ccc(F)cc1",
    "label": "n"
  }
]

Recorded test outcome, item O=C(NCc1ccccc1)c1ccc(S(=O)(=O)Nc2cccc(C(F)(F)F)c2)cc1
n

Recorded test outcome, item CCCCCn1c(SCCC(C)C)nc2c1c(=O)[nH]c(=O)n2C
y

Recorded test outcome, item CCc1ccc(NC(=O)Cn2nc(C)c([N+](=O)[O-])c2C)cc1
n

---

protocol: blockers of ER-stress CHOP reporter expression – cell-based, unfolded protein response, luciferase reporter, primary screen (AID 2732);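 also: 0% = tunicamycin plus vehicle and 100% = wells without tunicamycin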
condition set: CHO-K1 CHOP-promoter luciferase, tunicamycin-induced, 15-18 h; at 10 µM; stronger effect = higher value
Hit rate of the full screen: of about 220,000 compounds, about 8,200 (3.7%) were called active. The list comes from a sample in which actives are over-represented; it also holds close analogues and randomly drawn compounds.
// inhibition lookup, one value per entry
Supply the numeric figure in %, leaving out any unit text.

[
  {
    "compound": "O=C(Nc1ccccc1)OCc1cc(-c2ccc(Cl)cc2)on1",
    "recorded measurement": -15.4
  },
  {
    "compound": "C=CCNc1ncnc2ccc(Br)cc12",
    "recorded measurement": 27.4
  },
  {
    "compound": "Cn1c2ccccc2c(=O)c2c(=O)n(Cc3ccco3)c(COc3ccccc3)nc21",
    "recorded measurement": -34.3
  },
  {
    "compound": "CC(C)NC(=O)c1ccc(Cl)cc1Cl",
    "recorded measurement": 12.1
  },
  {
    "compound": "CCCc1nc2c(c(=O)c3ccccc3n2C)c(=O)n1C1CCCCCC1",
    "recorded measurement": 95.5
  }
]

Query (compound): CC/C=C/C(=O)N1CC2(CC(c3cccc(NC(=O)CC)c3)=NO2)C[C@H]1C(N)=O (some centres not stated) ; field requested: inhibition
-5.15

Query (compound): Clc1cccc(-c2nc(NCC3CCCO3)c3ccccc3n2)c1 (configuration not stated) ; field requested: inhibition
14.2

---

protocol: blockers of ER-stress CHOP reporter expression – cell-based, unfolded protein response, luciferase reporter, primary screen (AID 2732);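 also: 0% = tunicamycin plus vehicle and 100% = wells without tunicamycin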
condition set: CHO-K1 CHOP-promoter luciferase, tunicamycin-induced, 15-18 h; at 10 µM
In all, about 220,000 compounds went through this assay and about 8,200 (3.7%) were called active.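 Rule for the calls: active = compounds that reduced the stress-induced luciferase reporter signal by more than about 70% of percent inhibition (limit read from the data); inactive = the rest.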 The sample holds actives, similar compounds and a random draw of the others, so the mix is not that of the screen.
Classes to choose from: active, inactive

The following molecules have reported results that may help.
[
  {
    "molecule": "CCc1c(C)sc(NC(=O)c2ccc(Br)o2)c1C(=O)OC",
    "label": "active"
  },
  {
    "molecule": "CCOC(=O)c1c(NC(=O)c2ccc(Br)o2)sc2c1CCCC2",
    "label": "inactive"
  },
  {
    "molecule": "CCNC(=O)CCc1nc(-c2ccc(C)cc2)no1",
    "label": "inactive"
  }
]

Recorded test outcome, item Nn1c(SCc2ccccc2)nnc1C1CCCCC1
inactive

Recorded test outcome, item CC(=O)c1cc(NC(=O)c2ccccc2)c(=O)oc1/C=C/N(C)C
inactive

Recorded test outcome, item Cc1nc2cccnc2nc1C
inactive

Recorded test outcome, item Cn1cccc1/C=N/NC(=O)CNc1cccc2ccccc12
inactive

Recorded test outcome, item CCn1c2ccccc2c2cc(CC(N)=O)ccc21
inactive

Recorded test outcome, item Cc1cc(C)cc(C(=O)NC(=S)Nc2ccc3[nH]c(=O)[nH]c3c2)c1
active

Recorded test outcome, item Cc1ccccc1NC(=O)CN1C(=O)N/C(=C\c2cccn2-c2cccc(C(=O)O)c2)C1=O
inactive

Recorded test outcome, item Cc1ccc(-c2noc(CCC(N)=O)n2)cc1
inactive

Recorded test outcome, item CCOC(=O)NNC(=O)c1ccc(Cl)cc1
inactive
